system: c-Abl (mouse); experiment: phosphorylation enrichment, bacterial display (enrichment ratio); higher = better substrate or ligand; peptides without Tyr show the background;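 also: 11-residue human phosphosite peptides and single-mutation variants displayed on the E. coli surface, counted by deep sequencing, each peptide's frequency after selection divided by its frequency in the unselected input library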;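 also: frequency after pTyr selection over input frequency; kinase dosed for 20-30% of maximal phosphorylation in three min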
Measured metric: phosphorylation enrichment
Form rule: numeric answer, no unit written next to it.

[in] What value of phosphorylation enrichment has been recorded for this entry: HDRNTYEKFLE [TF_Y666_G671E_YF]
[out] 0.561

[in] How about this sequence: HRGHLYLAIEY [TEK_Y899_Y897H]
[out] 0.599

---

Below, each of the sequences is paired with its reported SH2 binding enrichment value.
molecular target: c-Src SH2; assay: SH2 binding enrichment of the phosphorylated peptide, bacterial display (enrichment ratio); higher = better substrate or ligand; peptides without Tyr show the background

{"columns": ["Residue sequence", "Value observed"],
 "data": [
  ["ADFFDYGRGLS [KHDRBS3_Y304_H306R_YF]", 0.625],
  ["EIIPFYGMSTF [FNDC3B_Y175_YF]", 3.09],
  ["CLGNQYVNVMN [SLC3A1_Y461_R456C]", 2.27],
  ["TTSQLYDAMPI [PDPK1_Y9_V12M]", 0.712],
  ["LQEKSYIKGTS [LCTL_Y331]", 0.546]
]}

[in] What value of SH2 binding enrichment has been recorded for this entry: EERNPYYSSAR [MCCC2_Y520_G517R]
[out] 2.83

[in] How about this sequence: VDDEIYYFRKP [PBRM1_Y1289]
[out] 0.521

---

Below, each of the sequences is paired with its reported SH2 binding enrichment value.
biological target: SHP2-C SH2; assay: SH2 binding enrichment of the phosphorylated peptide, bacterial display (enrichment ratio); higher = better substrate or ligand; peptides without Tyr show the background
Form rule: numeric answer, no unit written next to it.

{"columns": ["Residue sequence", "SH2 binding enrichment"],
 "data": [
  ["HQNGMYGLHQD [SGSH_Y89]", 0.962],
  ["PCPANYFAFKI [FAM3D_Y65]", 0.69],
  ["KLPFPYDDPFS [GPX2_Y127_YF]", 0.761],
  ["VGTKQYMAPEV [ACVRL1_Y375_R374Q]", 0.572]
]}

[in] Form field - read-out: SH2 binding enrichment; system: SHP2-C SH2; submitted item: SGLDSYVRSLP [TRAPPC1_Y133_R129G]
[out] 0.74

[in] How about this sequence: GFQPDYGQPAG [SYP_Y278_YF]
[out] 0.519

[in] How about this sequence: GAMGHYVLAER [HFE_Y342]
[out] 0.91

---

target: SHP2-C SH2; test: SH2 binding enrichment of the phosphorylated peptide, bacterial display (enrichment ratio); higher = better substrate or ligand; peptides without Tyr show the background
Below, each of the sequences is paired with its reported SH2 binding enrichment value.

{"columns": ["Residue sequence", "Measured metric", "Value observed"],
 "data": [
  ["AGAKTYKMSMA [CPS1_Y309]", "SH2 binding enrichment", 0.819],
  ["PPAPRYHHLAV [LZTR1_Y119_S122L]", "SH2 binding enrichment", 1.36],
  ["STEVIYQPRRK [STK11_Y36]", "SH2 binding enrichment", 0.467],
  ["TQNGVYSAANY [DDX5_Y535]", "SH2 binding enrichment", 0.536],
  ["MRALIYNSSTA [PLEKHA7_Y243]", "SH2 binding enrichment", 0.486]
]}

[in] What value of SH2 binding enrichment has been recorded for this entry: TSESSYYKSLN [NGEF_Y288_A286S]
[out] 0.64

[in] How about this sequence: SSFDIYHLSRE [KIR3DL2_Y253_YF]
[out] 0.694
